Provenance of the data: the nanobody polyreactivity screen of Harvey et al. (2022)

assay_summary: yeast display, Sf9 membrane polyspecificity reagent, FACS + sequencing; frameworks hold sequencing errors
measure: polyreactivity (PSR sort gate)

record_sequence: QVQLVESGGGLVQAGGSLSLSCAASGSIFNRYTMGWYRQAPGKERELVADISKSGTRTYYADSVKGRFTISRDNAKNTVYLQMNSQKPEDTSVYYCAKSSVAVYQTRYDYWGQGTQVNVSS
val: high polyreactivity
--
record_sequence: QVQLVESGGGLVQAGGSLRLSCAASGIIFLKNAMGWYRQAPGKERELVAAITVSGARTYYADSVKGRFTISRDNAKNTVYLQMNSLKPEDTAVYYCATDRSYQRYNYWGQGTQVTVSS
val: high polyreactivity
